PROCEDURE_DETAILS: in vivo
TEST_CONTEXT: male, Sprague-Dawley, rat, po, 5 mg/kg, single oral 5 mg/kg, multiple sampling, Mean, read-out: AUClast (observed exposure)
Structures can show the parent of a compound that is named as a salt.
QUANTITY_NAME: AUC(0-t) (ng·h/mL)
Give the value in ng·h/mL but do not write ng·h/mL after it.

Qu. Answer with the recorded AUC(0-t) of COc1ccc2c3c1O[C@H]1C[C@@H](O)C=C[C@@]31CCN(C)C2 [JNJ2, galantamine hydrobromide] only.
Ans. 1100

====

PROCEDURE_DETAILS: in vivo
TEST_CONTEXT: male, Sprague-Dawley, rat, po, 5 mg/kg, single oral 5 mg/kg, multiple sampling, Rat 2, read-out: t1/2 (half life) (converted)
Counter-ions that a name gives are not always drawn.
QUANTITY_NAME: half-life

Qu. Answer with the recorded half-life of COc1ccc2c3c1O[C@H]1C[C@@H](O)C=C[C@@]31CCN(C)C2 [JNJ2, galantamine hydrobromide] only.
Ans. 4.89 h

====

PROCEDURE_DETAILS: in vivo
TEST_CONTEXT: male, Sprague-Dawley, rat, po, 5 mg/kg, single oral 5 mg/kg, multiple sampling, Rat 1, read-out: Cmax (maximum plasma concentration)
Source text: Male SPF Sprague-Dawley rats (200-300 g, Charles River, Germany) were used throughout the study. Animals were allowed to acclimatize for one week prior to each part of the study. Tap water and food were available ad libitum. […] For both methods, the same formulation per compound was used to ensure any differences in results were not due to formulation effects. […] All formulations were stored at room temperature, protected from light and analysed quantitatively. […]
Where a name gives a salt, the structure may show the parent alone.
QUANTITY_NAME: Cmax (ng/mL)
Give the value in ng/mL but do not write ng/mL after it.

Qu. Answer with the recorded Cmax of COc1ccc2c3c1O[C@H]1C[C@@H](O)C=C[C@@]31CCN(C)C2 [JNJ2, galantamine hydrobromide] only.
Ans. 135

====

PROCEDURE_DETAILS: in vivo
TEST_CONTEXT: male, Sprague-Dawley, rat, po, 5 mg/kg, single oral 5 mg/kg, multiple sampling, Mean, read-out: Cmax (maximum plasma concentration)
Counter-ions that a name gives are not always drawn.
QUANTITY_NAME: Cmax

Qu. Answer with the recorded Cmax of COc1ccc2c3c1O[C@H]1C[C@@H](O)C=C[C@@]31CCN(C)C2 [JNJ2, galantamine hydrobromide] only.
Ans. 113 ng/mL

====

PROCEDURE_DETAILS: in vivo
TEST_CONTEXT: male, Sprague-Dawley, rat, single oral 5 mg/kg, Mean, read-out: AUClast (observed exposure)
Structures can show the parent of a compound that is named as a salt.
QUANTITY_NAME: AUC(0-t)

Qu. Answer with the recorded AUC(0-t) of COc1ccc2c3c1O[C@H]1C[C@@H](O)C=C[C@@]31CCN(C)C2 [JNJ2, galantamine hydrobromide] only.
Ans. 1380 ng·h/mL

====

PROCEDURE_DETAILS: in vivo
TEST_CONTEXT: male, Sprague-Dawley, rat, single oral 5 mg/kg, Mean, read-out: t1/2 (half life) (converted)
Where a name gives a salt, the structure may show the parent alone.
QUANTITY_NAME: half-life (h)
Give the value in h but do not write h after it.

Qu. Answer with the recorded half-life of COc1ccc2c3c1O[C@H]1C[C@@H](O)C=C[C@@]31CCN(C)C2 [JNJ2, galantamine hydrobromide] only.
Ans. 4.93

====

PROCEDURE_DETAILS: in vivo
TEST_CONTEXT: male, Sprague-Dawley, rat, po, 5 mg/kg, single oral 5 mg/kg, multiple sampling, Rat 1, read-out: AUCinf (extrapolated exposure)
Counter-ions that a name gives are not always drawn.
QUANTITY_NAME: AUC(0-inf) (ng·h/mL)
Give the value in ng·h/mL but do not write ng·h/mL after it.

Qu. Answer with the recorded AUC(0-inf) of COc1ccc2c3c1O[C@H]1C[C@@H](O)C=C[C@@]31CCN(C)C2 [JNJ2, galantamine hydrobromide] only.
Ans. 1440

====

PROCEDURE_DETAILS: in vivo
TEST_CONTEXT: male, Sprague-Dawley, rat, po, 5 mg/kg, single oral 5 mg/kg, multiple sampling, Rat 2, read-out: AUClast (observed exposure)
Structures can show the parent of a compound that is named as a salt.
QUANTITY_NAME: AUC(0-t)
Report as: number unit

Qu. Answer with the recorded AUC(0-t) of COc1ccc2c3c1O[C@H]1C[C@@H](O)C=C[C@@]31CCN(C)C2 [JNJ2, galantamine hydrobromide] only.
Ans. 1120 ng·h/mL

====

PROCEDURE_DETAILS: in vivo
TEST_CONTEXT: male, Sprague-Dawley, rat, po, 5 mg/kg, single oral 5 mg/kg, multiple sampling, Rat 1, read-out: AUClast (observed exposure)
Counter-ions that a name gives are not always drawn.
QUANTITY_NAME: AUC(0-t) (ng·h/mL)
Give the value in ng·h/mL but do not write ng·h/mL after it.

Qu. Answer with the recorded AUC(0-t) of COc1ccc2c3c1O[C@H]1C[C@@H](O)C=C[C@@]31CCN(C)C2 [JNJ2, galantamine hydrobromide] only.
Ans. 1310

====

PROCEDURE_DETAILS: in vivo
TEST_CONTEXT: male, Sprague-Dawley, rat, po, 5 mg/kg, single oral 5 mg/kg, multiple sampling, Rat 3, read-out: AUClast (observed exposure)
Structures can show the parent of a compound that is named as a salt.
QUANTITY_NAME: AUC(0-t) (ng·h/mL)
Give the value in ng·h/mL but do not write ng·h/mL after it.

Qu. Answer with the recorded AUC(0-t) of COc1ccc2c3c1O[C@H]1C[C@@H](O)C=C[C@@]31CCN(C)C2 [JNJ2, galantamine hydrobromide] only.
Ans. 866

====

PROCEDURE_DETAILS: in vivo
TEST_CONTEXT: male, Sprague-Dawley, rat, po, 5 mg/kg, single oral 5 mg/kg, multiple sampling, Rat 3, read-out: AUCinf (extrapolated exposure)
Source text: Male SPF Sprague-Dawley rats (200-300 g, Charles River, Germany) were used throughout the study. Animals were allowed to acclimatize for one week prior to each part of the study. Tap water and food were available ad libitum. […] For both methods, the same formulation per compound was used to ensure any differences in results were not due to formulation effects. […] All formulations were stored at room temperature, protected from light and analysed quantitatively. […]
Structures can show the parent of a compound that is named as a salt.
QUANTITY_NAME: AUC(0-inf) (ng·h/mL)
Give the value in ng·h/mL but do not write ng·h/mL after it.

Qu. Answer with the recorded AUC(0-inf) of COc1ccc2c3c1O[C@H]1C[C@@H](O)C=C[C@@]31CCN(C)C2 [JNJ2, galantamine hydrobromide] only.
Ans. 913

====

PROCEDURE_DETAILS: in vivo
TEST_CONTEXT: male, Sprague-Dawley, rat, po, 5 mg/kg, single oral 5 mg/kg, multiple sampling, Rat 2, read-out: Cmax (maximum plasma concentration)
Structures can show the parent of a compound that is named as a salt.
QUANTITY_NAME: Cmax
Report as: number unit

Qu. Answer with the recorded Cmax of COc1ccc2c3c1O[C@H]1C[C@@H](O)C=C[C@@]31CCN(C)C2 [JNJ2, galantamine hydrobromide] only.
Ans. 96.3 ng/mL

====

PROCEDURE_DETAILS: in vivo
TEST_CONTEXT: male, Sprague-Dawley, rat, po, 5 mg/kg, single oral 5 mg/kg, multiple sampling, Mean, read-out: AUCinf (extrapolated exposure)
Structures can show the parent of a compound that is named as a salt.
QUANTITY_NAME: AUC(0-inf) (ng·h/mL)
Give the value in ng·h/mL but do not write ng·h/mL after it.

Qu. Answer with the recorded AUC(0-inf) of COc1ccc2c3c1O[C@H]1C[C@@H](O)C=C[C@@]31CCN(C)C2 [JNJ2, galantamine hydrobromide] only.
Ans. 1180

====

PROCEDURE_DETAILS: in vivo
TEST_CONTEXT: male, Sprague-Dawley, rat, po, 5 mg/kg, single oral 5 mg/kg, multiple sampling, Rat 1, read-out: t1/2 (half life) (converted)
Counter-ions that a name gives are not always drawn.
QUANTITY_NAME: half-life
Report as: number unit

Qu. Answer with the recorded half-life of COc1ccc2c3c1O[C@H]1C[C@@H](O)C=C[C@@]31CCN(C)C2 [JNJ2, galantamine hydrobromide] only.
Ans. 6.81 h
